Listing of recorded inhibition by entry.
- targetOrTestSystem: Glucose transporter (Leishmania mexicana) (UniProt O61059)
- protocolSummary: ST_JUDE_LEISH: Cytotoxicity at 2uM final concentration against transgenic Leishmania Mexicana promastigotes LmGT2 that are glucose transport deficient and complemented with the L. Mexicana glucose transporter 2. Activity is measured by DNA content using SYBR green in vitro
- Type: functional
Use % as the unit, but write only the number.

Field: example entries. Status: answers known.
* CN1CCN(c2ccc(Nc3c(C(N)=O)cnc4cc(-c5ccoc5)ccc34)cc2C(F)(F)F)CC1 | 2.01
* COc1ccc(NC(C)C(=O)Nc2ccc(Br)cc2)cc1S(=O)(=O)N1CCCCC1 (stereo not given) | 1.93
* Clc1cccc(Nc2ccc3c(N4CCCCC4)ncnc3n2)c1 | 4.28
* O=C(CCc1c[nH]cn1)Nc1ccc(-c2cccc(-c3nc4ccccc4[nH]3)c2)cc1 | 0.03
* O=C(Nc1ccc(Cl)cc1)OCCn1nnnc1C(c1ccc(Cl)cc1)N1CCOCC1 (stereo not given) | 2.38

Can you share its inhibition? I mean this molecule: "CCC(N)(C#Cc1ccc(-c2c(C)[nH]c(C)c(Br)c2=O)cc1)CC"
0.36

Can you share its inhibition? I mean this molecule: COc1ccccc1C1CCN(C2CCC(NC(=O)/C=C/c3ccc(C(F)(F)F)cc3F)CC2)CC1 (stereo not given)
-0.44

Can you share its inhibition? I mean this molecule: "N#Cc1ccc(CN2CCC(Oc3ccc(NC(=O)c4cccs4)cc3)CC2)cc1"
4.28

Can you share its inhibition? I mean this molecule: COC(=O)c1cccc(NC(=O)NC2CCN(c3ccnc(Nc4cc(OC)c(OC)c(OC)c4)n3)C2)c1 (stereo not given)
8.79

Can you share its inhibition? I mean this molecule: Cc1cccc2nc(-c3ccc(-c4ccc(NC(=O)C(C)CN(C)C)cc4)cc3)[nH]c12 (stereo not given)
5.39
